experimental.details: label from the status in PepcDB records
measurement.kind: protein production

# annotated cases, reported protein production shown
# sequence.code, protein production
records = [
    ("MTQDEQICSLALTRIPGLGPTGAFRLVSSLGSATRVFEHRKELSQLVPGVSEKIITALNNSEAFRRAEQELTFCEKNHIRCLTLNDEGYPGRLRECDDAPLALFYRGNADLNALHVINMVGTRHATPYGQDICTRFLADLSVLCPNALIVSGLAYGIDIHAHRAALQNHFKTIGVLAHGLDRIYPAEHRKTAVSMLEQGGLLTEFTSGTNPDRQNFVKRNRIVAGMSDATVVIESAAKGGALITAELAESYHRDCFAFPGRCNDEYSIGCNNLIRKNQAVLITSAEDLVKAMGWESSPKTEKTVQRELFPDLSEEEERIVKRLGKMSEGLQINTLVIDTNIPVNRMSALLFELEMKGVIRALAGGVYRLIM", "not failed"),
    ("RSTRQQAGREAEAFALQFLQQQGLRLIEQNWLCKRGELDLVMLDGDTVVFVEVRYRRHCGWGGAVESVDFRKQGKLVTAAQLFLQQVSCWADYPCRFDVIAIEGSPGSFD", "failed"),
    ("MRKLAAFLGLVGLLSLGLAQSAQEILDRVEKNLSTPWQATVQGRIQGPGGEEELLARVYALPQARLFRVEFLKPGSLEGNFTVITEKEVWNYLYLTNQLVISPREKAKIQGLGFAPQGLGDLKALSEQVDLRLEGEVRLPEGMAWKLVGRSKENQGFAAMELYILKADPRPLRFVFLDEKGKVLADLKVVEFKRTNLTEAQLKRYPKDAQVVRR", "not failed"),
    ("MAAQALLSVGERRLLRGVDEQRALGAALARALAPGSVLFLEGELGAGKTTLTQGLLAALGFDGHVTSPTYALMQLYPASAGQVLHVDAYRVRDVAELYEMDLDELIAGSRLSVIEWGEGLYADYPQAPIYLFEHVEGDPETRRVTRRRLEHHHHHH", "failed"),
    ("MSLVENLSLEPQPKRRKIDPEVKESPSRNCSHWFVRNKVCASCNTIVDNYQGRSFDYLYTGIQMSNEALGFTKRLISQTSWLEDKKLHLVLDLDHTLVHTIKVSQLSESEKYITEEVESRKDLRRFNTGFPEESLIKLRSFVHQFLKECNEMFSLYVYTKGGYDYAQLVLEMIDPDKIYFGNRVITRRESPGFKTLDLVLADERGIVVVDDKSSVWPHDKKNLLQIARYKYFGDQSCLLSECKKKIDESDEKGPLNTALRFLMDVHEEFFCDWSRKDLDSVDVRPLLKEISLRWKRKADGVV", "failed"),
]

Using the record for MIRIGNLYVYLKNYIMKFTKLTIAFLSVFFCLVVACGSDGINDDPKTPDVTEPVTPNEPDEPDNPSVVKVPTLQKNVQDEWKIDSIDDGFIYYNYERYDDVSKAQQIVNVLEIDLLSNKYKVEFTYNNGDSLSTTAQVRGAIGGINGGYEQEAIYIRINGTNISEVTLPEGHLRYWKHDGALYSDGKSDIGIIYGGRNGKAAIDTYKQHSAKYLLASAPTLIDDYNPLGETFVGNYTMEQLESFDYEDYRRHQGVRHPRTVVAVTEDKDLLLVTIDGRWAGKAEGMSAKEVTLFLKKHFNPQYALNMDGGGSTTMYVKGKGAAKTDVVNYPTDNGVFNHYGQRRVTTHIIVKRK , state its measured protein production.
failed

###

experimental.details: label from the status in PepcDB records
measurement.kind: protein production

# sequence.code, protein production
rows = [
    ("MTETKPRIAIRYCTQCNWLLRAGWMAQEILQTFASDIGEVSLIPSTGGLFEITVDGTIIWERKRDGGFPGPKELKQRIRDLIDPERDLGHVDRTKHEGLDTLEHHHHHH", "not failed"),
    ("MTLLRVGGVPEPFNEIFMQAQEGALPSTKLQVEFLGVAGGSGAALEMLAKCELDVAVTLTESAVARTKAAASGLAVHSVYVASPLAWGVAVSSKKTDWTDLNSLDAAVLRGESIRAGFSRRGSGSHLLLSVFASDRGWISTGIQNDILKSFECGSFDGLIQAAVAGDIDMFLWETCFTKECAATRQGLIRLVGEYAPSWPAFVLVCRDDAHVRAAVSELKREIEPLQRKFCTGEGLDILQNKYGFSLESAKLWLSRLQFAEPDEALSAEQWRSVERALELTAGSRSSSR", "not failed"),
    ("MSQDVSAQLQFRRSTMHWLRVARTAALALLLAPAVAPARAWLPPPGHVQMPLWPTVVPDALPHPRPESVGTGEGKRPWTKVGDVSRPTITFYAPKGQNTGAAAVVFPGGGYQVLAMDLEGTDICDWLSGRGITCVLLKYRVPNSGPTWTNGGRYYPKVQTALQDAQRALGLVRQHADDWGVDPHRVGVIGFSAGGHLVAAMSTHFTRRTYPSVDAADAQSCRPDFAIAVYPGHLWAHEDEDRAKRDPTHLPLRPDITVTADTPPTFLLQAEDDEVDGVSQSLAYYVALKQAGVPAEMHLYAEGGHAFGLRAGKLPIAQWPHLVETWLGTIGMLGTASAP", "failed"),
    ("MVRGIRGAITVEEDTPEAIHQATRELLLKMLEANGIQSYEELAAVIFTVTEDLTFAFPAEAARQIGMHRVPLLSAREVPVPGSLPRVIRVLALWNTDTPQDRVRHVYLREAVRLRPDLESAQ", "not failed"),
    ("MPPFMSGLRAVSSLLSCRNAISRKLVSRSGIPRGSFVSDQIRRFGSLSGVERCSSNWLMSNDDARVSFRRLPGSVSLLQRRHFLGCGDGEEGGGELSKIYEERRVLGYTPEQMFNVVAAVDLYHGFVPWCQRSEVLKEYPDGSFDAELEIGFKFLVESYISHVESERPKWIKTTARDTGLFDHLINLWQFKPGPIPGTCDLHFHVDFKFNSPLYRQVASMFFKEVASRLVGAFSDRCRLVYGPGVRVDENAYEQRA", "failed"),
]

Using the record for MVQLIKKYEDLLCLLDELIKNESTFRWDEFYLERERDVPFFVLAPDEQLVEYVCTGLIESGKVLELGCGPGRNAIYLAENHFEVDVVDLSQKAIDWAMDRANERKASIRFIRENIFNLNVNKASYDLVYDSGCFHHIPPHRRMDYIHLVTTALKPGGHFGLTCFIENGPLGGAAISDLDVYRQQSLQGGLGFTEQKLIQIFDDFAVIEIRKMKEYPNDSSRFGVNGLLTALFQKKKVEKVKLEHHHHHH , state its measured protein production.
failed

Using the record for MSKKKILIFISVILIIFGGVYLKMKYDEKAKQKEIYYKEQQERITLYLKYNTKKPNTIKSVHFTSLEQGPMGDAIIEGYINNNKEDEFVAFASPENNYQFGGGLTADVKIFKLLKPANESRSPNEIKKDLDKKKERLEHHHHHH , state its measured protein production.
not failed

Using the record for MNYVELLGYLAMLLVGLSFLMKDVIKLRFVNALGCICFSIYGILIGSFPVAALNGFVACTNIYFLINNNKD , state its measured protein production.
failed

###

experimental.details: label from the status in PepcDB records
measurement.kind: protein production

# sequence.code, result
measured = [
    ("MTERSDYSIRIMSRQEIGMAVDWAAEEGWNPGLHDADCFHAADPEGFLTGLLGNEPVATISVVRYGTAFGFLGFYIVRPKYRGMGFGLKIWNAGLEQLKGRTIGLDGVVAQQENYAKSGFILAYRNIRVKGSGGGKIPAHEGIKPLVELPFETLLTYDSLFFPEERRTFLECWINQRESSSLGIIENNRLSGYGVIRTCRSGSKIGPLFADRADLAEELFCALKASAPEGSPLFLDIPEVNPEAVKLAQRHNMTVVFETSRMYQGNIPELPLGNIYGVTTFELG", "failed"),
    ("MILLSVHDSFLLDHNLPSACDKVFERLLDVTNSSFGFIATLQEDEDGQSLYLPAISNLAWDEETLTWYRHQRRTHGGLRLRKLDNLFGHVVTHNTVVCTNSLLRQKAGRDLPPIHPALHSLLGIPITHNGKTVGMIALANRREGYDQTMIELEHHHHHH", "failed"),
]

###

experimental.details: label from the status in PepcDB records
measurement.kind: protein production

# annotated cases, reported protein production shown
# sequence.code, protein production
records = [
    ("KTMKMRKFTIADASLERSPGQEADISVGNLVDERHGGPITIGYGRYAPGQSLTETMAVDDVMIVLEGRLSVSTDGETVTAGPGEIVYMPKGETVTIRSHEEGALTAYVTYPHWRPAHA", "not failed"),
    ("SAESSKLSATTVEAAPAMIKAKDVISPSEKEESDQTEITKVSVLKNLDEKEMIKEFADRLQRLEAKVDLLVTKADLLAIKADIQELLISAKGEKVPAMKTSAKASSESDDSYMDTSSEDESSSAEEPVNKPAASAAKPATKDSLFSAGFKPAAKDSLFSAGFKPDSLFSAGFEPAAKDSLFSAGFKPGSLFSAGFEPAAKDSLFSAGFKPDSLFSVGVKPAAKDSLFSVGVNGRSFSVTGFDASLPVDDIKSALSKYFSSFGEITRVFVPPSHGTGGSLGYAYIDLKEGAEKALELGRHDVGGWDLVVGKAEPIRSGSTWPFPGRCGNQGRCTFC", "failed"),
    ("LPVILWFLAHGLDVVFIDYPRDPATGVQYYCDSIAAAKSLLDAVLASRQLGLSPEAPLGLWGFSQGGGATGWAAQLQDYAPDVRPKAAVVGAPPVDLFRVLDTVDGGLLTGVIAYAIAGLAVNSSEMFEEIMSVLNERGVSDVLKNITSCAGGSLLASGYSSSRGWTHQGTPLADILDDLPLVVAEFGKQKLGRVAPEIPVLLWGSKNDDVIPIDPIRELRDSWADKGTPLTWHESQAPRVPGRTGLNHFGPYFRNLEKYSGWLIDHL", "failed"),
    ("MRDFGEILAENRKKKGYSQSDLVNLLSQEGIQVTTKALSKWENNAREPALHVFLTLCQLLDIEDIYESFFGENPYNIMSGLNEEGRNKLIEFADILKASKKFSPLSAKIIPFHHPVEITWEPVSAGTGNYLEDSVKETYDVGHLAPEQTDFGVRISGDSMEPLYHTDDVAWIQKKDSLANGEIGIFYLNGNTYIKELHDEPDGVYLISLNQKYRPIQVLESDSFKIFGKVIGKCKGAEIPGFHLEHHHHHH", "not failed"),
    ("DDGVVAAAAFDADRTDPDTLCVRYITVRQDRQGDRLGARLLRFVRERATERGFEHVSIGVNNPFSYQAAYRAGFCFSG", "failed"),
    ("MMKEKLESKKDEIRCCYKITDTDVAVLLKMVEIEKPITSEELADIFKLSKTTVENSLKKLIELGLVVRTKTEGKKIGRPKYYYSISSNILEKIRNDLLNCAKRMELAAT", "not failed"),
    ("MSKIFVNPSAIRAGLADLEMAEETVDLINRNIEDNQAHLQGEPIEVDNLPEDMGRLHLDDGKSPNPGEMAKVGEGKYREDFQMDEGEDPSLLFQSYLDNVGVQIVRQIRSGERFLKIWSQTVEEIISYVAVNFPNPPGKSSEDKSTQTTGRELKKETTPTPSQRESQSSKARMAAQTASGPPALEWSATNEEDDLSVEAEIAHQIAESFSKKYKFPSRSSGILLYNFEQLKMNLDDIVKEAKNVPGVTRLARDGSKLPLRCVLGWVALANSKKFQLLVESNKLSKIMQDDLNRYTSC", "not failed"),
    ("MEIIIYIFVSIAIISLQAITPFVIRKSECFGVNVGERANRNAELTQLKKQYVGQVILWTVLVAIIGIALIQGFHWSENIQAGIFIISMFGQLIVSFIIYYRFHHTTLQWKREKIESGEISTNSIIMVDTSFHRRKMVISYTWFVVPLLIFIITLAITAVFYPFAPEEFPVHFDMNGVVTDTVQKSVRAALLLPMLQLGMIALFIFINFVIARSKQTVENENPADSLKRNMLFRQISSKAMLIMCVILVIDFLVMQAVILLSLSPEIMMITMSISIILILLGTVLLAVKVGQGGSRLKFANEPDNVNKPIRDDDAFWKAGVIYFNRNDPALFVEKRFGIGWTINTARPVAWLTFVFIIAAIVFISILF", "failed"),
    ("MIIEGPVIKFGDKIDTDIIIPARYLKYTDPQYLAQHVMEPLDPEFYKKASKGVIIVAGKVFGMGSSREQAAIALKAAGVKAVVAESFARIFYRNAINNGLPVITLPNSTKEIDENSYVKIDVETGEILVGNKVLKGKGITGMALEILQAGGIMEYLKKMQTVNRN", "failed"),
    ("MLKSKRKEIILSRLEQNKSVTLDELTSILETSESTVRRDLDELESAGFLKRVHGGAELPYSLGQELSNQEKAIKNVQKKLDIARQTAKLIAKQDVIFIDAGTTTELLIDFLPHEQLTVVTNSIHHAAKLVDRGIKTIIIGGAVKHSTDASIGQVAINQIRQITVDKAFLGMNGIDEVYLTTPDLEEAAIKEAIINNSQQTFILMDSSKIGQVTFAKVKEINDINLVTNKTDSELMTIIKEKMKVIQV", "failed"),
]

Using the record for MDLVPLKLVTIVAESLLEKRLVEEVKRLGAKGYTITPARGEGSRGIRSVDWEGQNIRLETIVSEEVALRILQRLQEEYFPHYAVIAYVENVWVVRGEKYV , state its measured protein production.
not failed

Using the record for MHMALIHSILMGAVAGMRSMTPLAAVANAARTGKLPADNGAPALLANPLASAGMLALAGGELAGDKMKTAPDRIVLPGMIARIATGVIVGTALAPREQRGIAALLGATTAVAAAYLTFNARMRAIERYGQTSTGVVEDAISVGAATLIVRDAAKR , state its measured protein production.
failed

Using the record for MLVAAQQQGPPMPRPSHLMILALTAAALYIYALASDNTMLALMAKPIPVLALIAWLRSTPVSPYRTWISIGLGFSVLGDILLAIPADLFVFGLAAFLCAHLAYLRGYCGITLRPALPALIFSAITGIALLGVLASNGLGPLLIPVALYALAISAMLWRALACGGVAALGAGLFVFSDSLIGIDRFISPFAAAPYLIILAYWLGQWAIASSVGHRSTDKVLTQSGARRTESC , state its measured protein production.
failed

Source of measurements: a protein production outcome set (Wang et al. 2014)
